Target: Squalene--hopene cyclase (Alicyclobacillus acidocaldarius subsp. acidocaldarius (strain ATCC27009 / DSM 446 / 104-1A) (Bacillus acidocaldarius), UniProt P33247)
Sequence (P33247 whole entry): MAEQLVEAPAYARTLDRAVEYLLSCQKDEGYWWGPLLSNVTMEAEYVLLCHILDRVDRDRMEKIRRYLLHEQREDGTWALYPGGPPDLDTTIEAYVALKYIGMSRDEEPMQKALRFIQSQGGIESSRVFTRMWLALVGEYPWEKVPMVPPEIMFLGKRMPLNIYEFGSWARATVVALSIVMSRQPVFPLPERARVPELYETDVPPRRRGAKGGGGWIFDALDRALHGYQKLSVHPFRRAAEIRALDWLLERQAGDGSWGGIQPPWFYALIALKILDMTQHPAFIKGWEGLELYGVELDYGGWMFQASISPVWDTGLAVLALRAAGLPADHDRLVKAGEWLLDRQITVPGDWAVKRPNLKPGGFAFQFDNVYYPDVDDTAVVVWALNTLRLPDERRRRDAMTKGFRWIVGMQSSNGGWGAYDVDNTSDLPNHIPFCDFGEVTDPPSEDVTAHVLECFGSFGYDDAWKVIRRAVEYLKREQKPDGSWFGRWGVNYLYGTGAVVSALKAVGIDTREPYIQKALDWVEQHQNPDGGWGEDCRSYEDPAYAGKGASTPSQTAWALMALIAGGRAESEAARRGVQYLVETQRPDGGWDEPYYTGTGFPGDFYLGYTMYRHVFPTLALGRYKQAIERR
Test: Inhibitory activity against squalene hopene cyclase from Alicyclobacillus acidocaldarius
pIC50: −log10 of the molar value.
pIC50 of 7 or higher: fulfilled. Under 7: not fulfilled.

Study these solved cases before continuing.
1. C=CCN(C)CCCCCCOc1ccc2c(C)nn(C)c2c1 = not fulfilled
2. C=CCN(C)C/C=C/COc1ccc2c(-c3ccc(Br)cc3)noc2c1 = fulfilled
3. C=CCN(C)CCCCCCOC1CCN(C(=O)c2ccc(F)cc2)CC1 = not fulfilled
4. C=CCN(C)CCCCCCOc1ccc2c(c1)CON=C2c1ccc(Br)cc1 = not fulfilled
5. CN(CCCCCCOc1ccc(C(=O)c2ccc(Br)cc2)c(F)c1)C1CC1 = fulfilled

Problem: Determine whether this compound has pIC50 no lower than 7: `CN(CCCCCCOC1CCN(C(=O)c2ccc(F)cc2)CC1)C1CC1`
Solution: not fulfilled

Problem: Has `O=C(c1ccc(Cl)cc1)N1CCC(=Cc2ccc(C3=NCCO3)cc2)CC1` a recorded pIC50 greater than or equal to 7?
Solution: not fulfilled

Problem: # bool: pIC50 of `C=CCN(C)C/C=C/COc1ccc(C(=O)c2ccc(Br)cc2)cc1` >= 7
Solution: fulfilled

Problem: Item `CN(C[C@H]1C[C@@H]1COc1ccc(C(=O)c2ccc(Br)cc2)c(F)c1)C1CC1` with pIC50 of 7 or above?
Solution: fulfilled
